Target Under Test: HuR (Homo sapiens)
Construct: expressed in transfected cells; host or cells: U251 glioma cells, doxycycline-inducible constructs
Experimental Protocol: cell-based split firefly luciferase-HuR dimerization assay
Cond: split luciferase HuR dimerization assay, compounds administered for 6 hours; read-out: HuR IC50
pIC50: −log10 of the molar value.
Measured Attribute: pIC50

(I) c1ccc(CNc2ccc3ncc(-c4ccc5[nH]ncc5c4)n3n2)cc1
(II) CCCNc1ccc2ncc(-c3ccc4[nH]ncc4c3)n2n1
Q: Could you please tell me which of these two has the higher pIC50: I or II ? Choose, then provide that item's label.
Result: II
(II: 6.15, I: 5.52)

###

Measured inhibition at 50 µM values are reported for all entries that follow.
Test system: U251 cells expressing Fluc construct
Experimental Protocol: control Fluc (full length luciferase) reporter assay in U251 cells
Type: cell-based
Cond: Homo sapiens, U-251, 6 h; Concn 50 uM; read-out: Fluc Imax % Inh
State just the number; it will be interpreted in %.

Answered cases to consult:
[[record]]
molecule = "FC(F)(F)CNc1ccc2ncc(-c3ccc4[nH]ncc4c3)n2n1"
target_under_test = "U251 cells expressing Fluc construct"
measured_attribute = "inhibition at 50 µM"
recorded_measurement = 26

[[record]]
molecule = "CCCN(C)c1ccc2ncc(-c3ccc4cnn(C)c4c3)n2n1"
target_under_test = "U251 cells expressing Fluc construct"
measured_attribute = "inhibition at 50 µM"
recorded_measurement = 36

[[record]]
molecule = "CCCN(C)c1ccc2ncc(-c3ccc4[nH]nc(C(C)=O)c4c3)n2n1"
target_under_test = "U251 cells expressing Fluc construct"
measured_attribute = "inhibition at 50 µM"
recorded_measurement = 10


Q: Reported inhibition at 50 µM for Cn1ncc2ccc(-c3cnc4ccc(NC5CCOCC5)nn34)cc21 : what is it?
Result: 35

Q: // query: O=C(c1ccc(=O)[nH]c1)N1CCN(C(=O)C2CC2c2ccccc2)CC1 (stereo not shown)
Result: 0

Q: // query: Clc1ncc2nnn(-c3ccc4cn[nH]c4c3)c2n1
Result: 0

Q: // query: COc1ncccc1-c1cnn2ccc(N3CCN(C(=O)OC(C)C)CC3)nc12
Result: 28

Q: // query: c1ccc(CNc2ccc3ncc(-c4ccc5[nH]ncc5c4)n3n2)cc1
Result: 24

Q: // query: O=C(c1ccc2nsnc2c1)N1CCN(C(=O)C2CC2c2cccs2)CC1 (stereo not shown)
Result: 0

Q: // query: CN(c1ccc2ncc(-c3ccc4cn[nH]c4c3)n2n1)C1CCOCC1
Result: 26

Q: // query: Cc1ccc(S(=O)(=O)NC(C(=O)Oc2ccc3c4c(c(=O)oc3c2C)CCC4)c2ccccc2)cc1 (stereo not shown)
Result: 0

Q: // query: COc1ccc(-c2[nH]ncc2C(=O)NCC2CC2)cc1Cl
Result: 0

Q: // query: CN(c1ccc2ncc(-c3ccc4cnn(C)c4c3)n2n1)C1CCOCC1
Result: 28

Q: // query: CC1(C)CC(Nc2ccc3ncc(-c4ccc5[nH]ncc5c4)n3n2)CCO1 (stereo not shown)
Result: 25

Q: // query: FC1(F)CCC(Nc2ccc3ncc(-c4ccc5cn[nH]c5c4)n3n2)CC1
Result: 39

Q: // query: c1cc2cn[nH]c2cc1-c1cnc2ccc(NC3CCOCC3)nn12
Result: 38

Q: // query: CN1CCN(c2ccc3ncc(-c4ccc5[nH]ncc5c4)n3n2)CC1
Result: 13

Q: // query: CN(c1ccc2ncc(-c3ccc4cn[nH]c4c3)n2n1)C1CCCCC1
Result: 32

Q: // query: CN(c1ccc2ncc(-c3cnc4[nH]ncc4c3)n2n1)C1CCOCC1
Result: 10

###

Experimental Protocol: in vivo pharmacokinetic study in mice by ip administration
Parameters: species or system C57Bl/6 mice
Cond: C57Bl/6, mouse, brain/plasma, ip, 10 mg/kg, mouse, 10 mg/kg IP, 0.5 h, individual animals; read-out: Ratio (Brain/Plasma)
Measured Attribute: Kp at 0.5 h
Respond with the number and no other words.

Q: Reported Kp at 0.5 h for CN(c1ccc2ncc(-c3ccc4cn[nH]c4c3)n2n1)C1CCOCC1 [Compound 19] : what is it?
Result: 0.536

###

Experimental Protocol: in vivo pharmacokinetic study in mice by ip administration
Design: species or system C57Bl/6 mice
Cond: C57Bl/6; mouse, 10 mg/kg ip, Plasma; read-out: MRTInf_obs
Measured Attribute: MRT inf (min)
State just the number; it will be interpreted in min.

Q: Reported MRT inf for CN(c1ccc2ncc(-c3ccc4cn[nH]c4c3)n2n1)C1CCOCC1 [Compound 19] : what is it?
Result: 18.4

###

Target Under Test: HuR (Homo sapiens, UniProt Q15717)
Construct: expressed in transfected cells; host or cells: U251 glioma cells, doxycycline-inducible constructs
Sequence (Q15717 whole entry): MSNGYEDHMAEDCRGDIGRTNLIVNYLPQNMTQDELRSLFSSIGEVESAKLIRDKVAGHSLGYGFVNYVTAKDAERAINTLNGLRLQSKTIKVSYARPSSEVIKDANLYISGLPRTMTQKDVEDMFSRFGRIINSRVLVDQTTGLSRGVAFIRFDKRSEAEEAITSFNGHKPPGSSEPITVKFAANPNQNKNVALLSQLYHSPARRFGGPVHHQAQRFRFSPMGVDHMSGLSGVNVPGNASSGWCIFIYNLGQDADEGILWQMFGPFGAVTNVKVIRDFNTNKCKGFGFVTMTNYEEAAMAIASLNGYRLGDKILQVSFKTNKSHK
Experimental Protocol: cell-based split firefly luciferase-HuR dimerization assay
Cond: U251 cells co-expressing HuR-Nluc and HuR-Cluc, 6 hours of treatment; read-out: HuR IC50
Measured Attribute: IC50 (µM)

Answered cases to consult:
[[record]]
compound_string = "c1ccc(CNc2ccc3ncc(-c4ccc5[nH]ncc5c4)n3n2)cc1"
target_under_test = "HuR (Homo sapiens, UniProt Q15717)"
measured_attribute = "IC50"
units_text = "µM"
recorded_measurement = 3

[[record]]
compound_string = "c1cc2cn[nH]c2cc1-n1nnc2cnc(NC3CCOCC3)nc21"
target_under_test = "HuR (Homo sapiens, UniProt Q15717)"
measured_attribute = "IC50"
units_text = "µM"
recorded_measurement = 5

[[record]]
compound_string = "CCCN(C)c1ccc2ncc(-c3ccc4cn[nH]c4c3)n2n1"
target_under_test = "HuR (Homo sapiens, UniProt Q15717)"
measured_attribute = "IC50"
units_text = "µM"
recorded_measurement = 2.2


(P) c1nn(C2CCOCC2)cc1Nc1ncc2nnn(-c3ccc4cn[nH]c4c3)c2n1
(Q) CN(c1ccc2ncc(-c3ccc4[nH]cnc4c3)n2n1)C1CCOCC1
Q: Could you please tell me which of these two has the higher IC50: P or Q ? Choose, then provide that item's label.
Result: Q

###

Experimental Protocol: in vivo pharmacokinetic study in mice by ip administration
Design: species or system C57Bl/6 mice
Cond: C57Bl/6; mouse, 10 mg/kg ip, Plasma; read-out: T½ (converted)
Measured Attribute: half-life (min)
State just the number; it will be interpreted in min.

Q: Reported half-life for CN(c1ccc2ncc(-c3ccc4cn[nH]c4c3)n2n1)C1CCOCC1 [Compound 19] : what is it?
Result: 9.6

###

Target Under Test: HuR (Homo sapiens, UniProt Q15717)
Construct: expressed in transfected cells; host or cells: U251 glioma cells, doxycycline-inducible constructs
Experimental Protocol: cell-based split firefly luciferase-HuR dimerization assay
Measured Attribute: HuR inhibition activity (in words)

[[record]]
compound = "CCCN(c1ccc2ncc(-c3ccc4cn[nH]c4c3)n2n1)C1CCOCC1 [Compound 27]"
recorded_measurement = "inactive"

[[record]]
compound = "CCN(c1ccc2ncc(-c3ccc4cn[nH]c4c3)n2n1)C1CCOCC1 [Compound 26]"
recorded_measurement = "inactive"


###

Target Under Test: HuR (Homo sapiens)
Construct: expressed in transfected cells; host or cells: U251 glioma cells, doxycycline-inducible constructs
Experimental Protocol: cell-based split firefly luciferase-HuR dimerization assay
Cond: U251 with dox-inducible HuR-dimerization reporters, before increase in HuR dimerization, 6 hours; read-out: IC50 for inhibition of HuR dimerization
Measured Attribute: pIC50
# reply with the number alone; pIC50 is -log10 of concentration in mol/L

Q: // lookup pIC50 | system=HuR (Homo sapiens) | key= CN(c1ccc2ncc(-c3ccc4cn[nH]c4c3)n2n1)C1CCOCC1
Result: 5.92

###

Experimental Protocol: in vivo pharmacokinetic study in mice by ip administration
Parameters: species or system C57Bl/6 mice
Cond: C57Bl/6, mouse, brain/plasma, ip, 10 mg/kg, mouse, 10 mg/kg IP, 1 h; read-out: Ratio (Brain/Plasma) Mean
Measured Attribute: Kp at 1 h
Respond with the number and no other words.

Q: Reported Kp at 1 h for CN(c1ccc2ncc(-c3ccc4cn[nH]c4c3)n2n1)C1CCOCC1 : what is it?
Result: 0.398

###

Target Under Test: HuR (Homo sapiens)
Construct: expressed in transfected cells; host or cells: U251 glioma cells, doxycycline-inducible constructs
Experimental Protocol: cell-based split firefly luciferase-HuR dimerization assay
Cond: split luciferase HuR dimerization assay, compounds administered for 6 hours; read-out: HuR IC50
Measured Attribute: IC50 (µM)

Answered cases to consult:
[[record]]
compound = "CN(c1ccc2ncc(-c3ccc4cn[nH]c4c3)n2n1)C1CCOCC1"
recorded_measurement = 1.5

[[record]]
compound = "CCCN(C)c1ccc2ncc(-c3ccc4c(C)n[nH]c4c3)n2n1"
recorded_measurement = 25

[[record]]
compound = "FC1(F)CCC(Nc2ccc3ncc(-c4ccc5[nH]ncc5c4)n3n2)CC1"
recorded_measurement = 2.1

[[record]]
compound = "CC1(C)CC(Nc2ccc3ncc(-c4ccc5[nH]ncc5c4)n3n2)CCO1 (stereo not shown)"
recorded_measurement = 1.1

[[record]]
compound = "CCCN(C)c1ccc2ncc(-c3ccc4cnn(C)c4c3)n2n1"
recorded_measurement = 2.2


(P) Cn1ncc2ccc(-c3cnc4ccc(NC5CCOCC5)nn34)cc21
(Q) FC1(F)CCC(Nc2ccc3ncc(-c4ccc5cn[nH]c5c4)n3n2)CC1
(R) CN(c1ccc2ncc(-c3ccc4cn[nH]c4c3)n2n1)C1CCCCC1
Q: List from greatest to least IC50. API: response body holds the labels in the requested order.
Result: R, Q, P

(1) CN(c1ccc2ncc(-c3cnc4[nH]ncc4c3)n2n1)C1CCOCC1
(2) CN(c1ccc2ncc(-c3ccc4cnn(C)c4c3)n2n1)C1CCOCC1
Q: Decide: 1 or 2 , by lowest recorded IC50. Choose, then provide that item's label.
Result: 1

(I) CN1CCN(c2ccc3ncc(-c4ccc5[nH]ncc5c4)n3n2)CC1
(II) CCCN(C)c1ccc2ncc(-c3ccc4[nH]ncc4c3)n2n1
(III) c1ccc(-c2cnc3ccc(NC4CCOCC4)nn23)cc1
Q: Ordering: ascending IC50. API: response body holds the labels in the requested order.
Result: II, I, III
